Where these numbers come from: patent US20030104507A1

Reported Average Relative Light Unit Values values follow for various compounds
System: ATPase activity endogenous to L929 cell lysate
Test description: Detergent inhibition of ATPase endogenous to L929 cell lysate (ATP remaining by luciferase luminescence, 22° C.)
Assay type: biochemical
Condition details: Example 2, 0.02% detergent, 75 min
Give the value, in units of rlu, as a plain number.

See these solved cases before continuing.
{"Compound": "CCCCCCCCCCCC[N+](C)(C)CCCS(=O)(=O)[O-]", "Reading unit": "rlu", "Average Relative Light Unit Values": 1622.61}
{"Compound": "CCCCCCCCCCCC[N+](C)(C)C.[Br-] [DTAB, dodecyltrimethylammonium bromide]", "Reading unit": "rlu", "Average Relative Light Unit Values": 1997.09}
{"Compound": "CCCCCCCCCCCC[N+](C)(C)Cc1ccccc1.[Br-] [BDDABr, Benzyldimethyldodecylammonium bromide]", "Reading unit": "rlu", "Average Relative Light Unit Values": 2686.49}

Could you now look at the following compound, please?
Lab entry: ATPase activity endogenous to L929 cell lysate assay, compound C[C@H](CCC(=O)[O-])[C@H]1CC[C@H]2[C@@H]3CC[C@@H]4C[C@H](O)CC[C@]4(C)[C@H]3C[C@H](O)[C@]12C.[Na+] [Deoxycholate, sodium deoxycholate] , Average Relative Light Unit Values = 1694.47

* * *

System: ATPase activity endogenous to L929 cell lysate
Test description: Detergent inhibition of ATPase endogenous to L929 cell lysate (ATP remaining by luciferase luminescence, 22° C.)
Type: biochemical
Condition details: 0.05% detergent, 5 min
Parameter: Percent ATP Remaining. Scope: all listed entries.
Please state the figure in %; there is no need to write the unit.

Example results:
{"Molecule": "C[C@H](CCC(=O)N(CCCNC(=O)[C@H](O)[C@@H](O)[C@H](O)[C@H](O)CO)CCCNC(=O)[C@H](O)[C@@H](O)[C@H](O)[C@H](O)CO)[C@H]1CC[C@H]2[C@@H]3[C@H](O)C[C@@H]4C[C@H](O)CC[C@]4(C)[C@H]3C[C@H](O)[C@]12C [BIGCHAP, N,N-bis(3-D-Gluconamidopropyl)cholamide]", "Percent ATP Remaining, %": 100}
{"Molecule": "CCCCCCCCCCCC[N+](C)(C)Cc1ccccc1.[Br-] [BDDABr, Benzyldimethyldodecylammonium bromide]", "Percent ATP Remaining, %": 100}
{"Molecule": "C[C@H](CCC(=O)NCCC[N+](C)(C)CC(O)CS(=O)(=O)[O-])[C@H]1CC[C@H]2[C@@H]3[C@H](O)C[C@@H]4C[C@H](O)CC[C@]4(C)[C@H]3C[C@H](O)[C@]12C (some centres unmarked)", "Percent ATP Remaining, %": 100}
{"Molecule": "CCCCCCCCCCCCOS(=O)(=O)[O-].[Na+] [SDS, Sodium dodecyl sulfate]", "Percent ATP Remaining, %": 100}

Alright, here's another molecule for you.
Reported Percent ATP Remaining of CCCCCCCCCCCCCCCC[N+](C)(C)C.[Br-] [CTAB, Cetyltrimethylammonium bromide] : 100

* * *

System: ATPase activity endogenous to L929 cell lysate
Test description: Detergent inhibition of ATPase endogenous to L929 cell lysate (ATP remaining by luciferase luminescence, 22° C.)
Assay type: biochemical
Condition details: 1.0% detergent, 5 min
We begin with a simple list: items and their reported Average Relative Light Unit Values.
// note: answer is a bare numeric in rlu

{"Compound": "CCCCCCCCCCCCCCCC[N+](C)(C)C.[Br-] [CTAB, Cetyltrimethylammonium bromide]", "Reading unit": "rlu", "Numeric result": 0.09}
{"Compound": "CCCCCCCCCCCCOS(=O)(=O)[O-].[Na+] [SDS, Sodium dodecyl sulfate]", "Reading unit": "rlu", "Numeric result": 0.01}
{"Compound": "C[C@H](CCC(=O)NCCC[N+](C)(C)CCCS(=O)(=O)[O-])[C@H]1CC[C@H]2[C@@H]3[C@H](O)C[C@@H]4C[C@H](O)CC[C@]4(C)[C@H]3C[C@H](O)[C@]12C", "Reading unit": "rlu", "Numeric result": 7241.33}

// field: Average Relative Light Unit Values; key: C[C@H](CCC(=O)NCCC[N+](C)(C)CC(O)CS(=O)(=O)[O-])[C@H]1CC[C@H]2[C@@H]3[C@H](O)C[C@@H]4C[C@H](O)CC[C@]4(C)[C@H]3C[C@H](O)[C@]12C (some centres unmarked) ; value = 7160.63

Documented Average Relative Light Unit Values of C[C@H](CCC(=O)[O-])[C@H]1CC[C@H]2[C@@H]3CC[C@@H]4C[C@H](O)CC[C@]4(C)[C@H]3C[C@H](O)[C@]12C.[Na+] [Deoxycholate, sodium deoxycholate] : 3.98

* * *

System: ATPase activity endogenous to L929 cell lysate
Test description: Detergent inhibition of ATPase endogenous to L929 cell lysate (ATP remaining by luciferase luminescence, 22° C.)
Assay type: biochemical
Condition details: 1.0% detergent, 75 min
Recorded metric: Percent ATP Remaining (%)
Numbers only here, please. The scale is %.

{"Compound": "CCCCCCCCCCCC[N+](C)(C)C.[Br-] [DTAB, dodecyltrimethylammonium bromide]", "Reading unit": "%", "Numeric result": 86.6}
{"Compound": "C[C@H](CCC(=O)NCCC[N+](C)(C)CCCS(=O)(=O)[O-])[C@H]1CC[C@H]2[C@@H]3[C@H](O)C[C@@H]4C[C@H](O)CC[C@]4(C)[C@H]3C[C@H](O)[C@]12C", "Reading unit": "%", "Numeric result": 52.7}
{"Compound": "C[C@H](CCC(=O)N(CCCNC(=O)[C@H](O)[C@@H](O)[C@H](O)[C@H](O)CO)CCCNC(=O)[C@H](O)[C@@H](O)[C@H](O)[C@H](O)CO)[C@H]1CC[C@H]2[C@@H]3[C@H](O)C[C@@H]4C[C@H](O)CC[C@]4(C)[C@H]3C[C@H](O)[C@]12C [BIGCHAP, N,N-bis(3-D-Gluconamidopropyl)cholamide]", "Reading unit": "%", "Numeric result": 53.4}
{"Compound": "C[C@H](CCC(=O)NCCC[N+](C)(C)CC(O)CS(=O)(=O)[O-])[C@H]1CC[C@H]2[C@@H]3[C@H](O)C[C@@H]4C[C@H](O)CC[C@]4(C)[C@H]3C[C@H](O)[C@]12C (some centres unmarked)", "Reading unit": "%", "Numeric result": 53.1}

# input for lookup
Percent ATP Remaining on ATPase activity endogenous to L929 cell lysate for "CCCCCCCCCCCC[N+](C)(C)CCCS(=O)(=O)[O-]" is 72.6

* * *

System: ATPase activity endogenous to L929 cell lysate
Test description: Detergent inhibition of ATPase endogenous to L929 cell lysate (ATP remaining by luciferase luminescence, 22° C.)
Format: biochemical
Condition details: 1.0% detergent, 169 min
Recorded metric: Average Relative Light Unit Values

Here are 5 compounds together with their reported answers.
{"Compound": "CCCCCCCCCCCCCCCC[N+](C)(C)C.[Br-] [CTAB, Cetyltrimethylammonium bromide]", "Average Relative Light Unit Values": "0.07 rlu"}
{"Compound": "CCCCCCCCCCCC[N+](C)(C)CCCS(=O)(=O)[O-]", "Average Relative Light Unit Values": "4318.46 rlu"}
{"Compound": "CCCCCCCCCCCCOS(=O)(=O)[O-].[Na+] [SDS, Sodium dodecyl sulfate]", "Average Relative Light Unit Values": "0.01 rlu"}
{"Compound": "C[C@H](CCC(=O)NCCC[N+](C)(C)CCCS(=O)(=O)[O-])[C@H]1CC[C@H]2[C@@H]3[C@H](O)C[C@@H]4C[C@H](O)CC[C@]4(C)[C@H]3C[C@H](O)[C@]12C", "Average Relative Light Unit Values": "2348.28 rlu"}
{"Compound": "CCCCCCCCCCCC[N+](C)(C)C.[Br-] [DTAB, dodecyltrimethylammonium bromide]", "Average Relative Light Unit Values": "649.41 rlu"}

// Average Relative Light Unit Values value for C[C@H](CCC(=O)N(CCCNC(=O)[C@H](O)[C@@H](O)[C@H](O)[C@H](O)CO)CCCNC(=O)[C@H](O)[C@@H](O)[C@H](O)[C@H](O)CO)[C@H]1CC[C@H]2[C@@H]3[C@H](O)C[C@@H]4C[C@H](O)CC[C@]4(C)[C@H]3C[C@H](O)[C@]12C [BIGCHAP, N,N-bis(3-D-Gluconamidopropyl)cholamide] : 2474.59 rlu

Note to self: Average Relative Light Unit Values recorded for C[C@H](CCC(=O)[O-])[C@H]1CC[C@H]2[C@@H]3CC[C@@H]4C[C@H](O)CC[C@]4(C)[C@H]3C[C@H](O)[C@]12C.[Na+] [Deoxycholate, sodium deoxycholate] was 3.63 rlu

Short answer for C[C@H](CCC(=O)NCCC[N+](C)(C)CC(O)CS(=O)(=O)[O-])[C@H]1CC[C@H]2[C@@H]3[C@H](O)C[C@@H]4C[C@H](O)CC[C@]4(C)[C@H]3C[C@H](O)[C@]12C (stereo partly drawn) : Average Relative Light Unit Values was 2376.31 rlu

CCCCCCCCCCCC[N+](C)(C)Cc1ccccc1.[Br-] [BDDABr, Benzyldimethyldodecylammonium bromide] has a reported Average Relative Light Unit Values of 0.44 rlu
